System: P. vulgatus RND KO;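 also: active when median AUC fell below 0.1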
Test: growth AUC normalised to DMSO control (median) (fraction of control); higher = less growth inhibition, active = hit call of the paper
Conditions: 20 µM
Please reply with one of these outcomes: active, inactive

Use the examples below as a reference point.
{"compound": "N[C@H]1CONC1=O [(S,-) Cycloserine]", "assigned-category": "inactive"}
{"compound": "O=C1OC(c2ccc(O)cc2)(c2ccc(O)cc2)c2ccccc21", "assigned-category": "inactive"}
{"compound": "C/C=C(/C(=C/C)c1ccc(O)cc1)c1ccc(O)cc1", "assigned-category": "active"}

(Q) Query: recorded result category for CCC1(C)CC(=O)NC1=O (stereo not given) [Ethosuximide] in this test
(A) inactive

(Q) Query: recorded result category for COc1ccc(C(=O)NCc2ccc(OCCN(C)C)cc2)cc1OC [Itopride] in this test
(A) inactive

###

Tested on: Yersinia pseudotuberculosis
Assay: growth AUC normalised to DMSO control (fraction of control); higher = less growth inhibition, active = hit call of the paper
Conditions: 20 µM
Where a name gives a salt, the structure may show the parent alone.
Please reply with one of these outcomes: active, inactive

{"molecule": "O=C1C(=O)c2ccccc2C(O)=C1C1CCC(c2ccc(Cl)cc2)CC1 (stereo unspecified)", "assigned-category": "inactive"}

(Q) Query: recorded result category for O=C1NCCN1c1ncc([N+](=O)[O-])s1 in this test
(A) inactive

(Q) Query: recorded result category for CCOC(=O)[C@H](CCc1ccccc1)N[C@H]1CCc2ccccc2N(CC(=O)O)C1=O [Benazepril hydrochloride] in this test
(A) inactive

(Q) Query: recorded result category for CC1(C)OC(=O)NC1=O in this test
(A) inactive

###

Tested on: Yersinia pseudotuberculosis
Assay: growth AUC normalised to DMSO control (fraction of control); higher = less growth inhibition, active = hit call of the paper
Conditions: 20 µM
Where a name gives a salt, the structure may show the parent alone.
quantity: growth AUC normalised to DMSO control
Please state the value as a number alone, without comment.

Recorded growth AUC normalised to DMSO control, per entry:
{"compound": "CCN(CC)Cc1cc(Nc2ccnc3cc(Cl)ccc23)ccc1O [Amodiaquine dihydrochloride dihydrate]", "quantity": "growth AUC normalised to DMSO control", "observed-result": 0.966}
{"compound": "CCN(CC)C(=O)c1ccc(O)c(OC)c1 [Ethamivan]", "quantity": "growth AUC normalised to DMSO control", "observed-result": 1}
{"compound": "CC(=O)CCCCn1c(=O)c2c(ncn2C)n(C)c1=O [Pentoxifylline]", "quantity": "growth AUC normalised to DMSO control", "observed-result": 0.989}
{"compound": "NC(=O)OCC(O)COc1ccc(Cl)cc1 (stereo not drawn) [Chlorphensin carbamate]", "quantity": "growth AUC normalised to DMSO control", "observed-result": 1.01}
{"compound": "CO[C@H]1/C=C/O[C@@]2(C)Oc3c(C)c(O)c4c(O)c(c5c(nc6cc(C)ccn65)c4c3C2=O)NC(=O)/C(C)=C\\C=C\\[C@H](C)[C@H](O)[C@@H](C)[C@@H](O)[C@@H](C)[C@H](OC(C)=O)[C@@H]1C [Rifaximin]", "quantity": "growth AUC normalised to DMSO control", "observed-result": 0.0303}

(Q) Look up and report measured growth AUC normalised to DMSO control for this entry: CN1[C@@H]2CC[C@H]1C[C@@H](OC(c1ccccc1)c1ccccc1)C2 [Benztropine mesylate]
(A) 1.01

(Q) Look up and report measured growth AUC normalised to DMSO control for this entry: CCN(CC)CCNC(=O)c1cc(S(C)(=O)=O)ccc1OC [Tiapride hydrochloride]
(A) 1.01

(Q) Look up and report measured growth AUC normalised to DMSO control for this entry: COc1ccc(-c2cc(=S)ss2)cc1 [Anethole-trithione]
(A) 1.19
